Hello, the source for this data is the supplement of paper PMC6757056, in case you need it.

B1: library; a variant is named by its letters at N, in order (parent)
chain: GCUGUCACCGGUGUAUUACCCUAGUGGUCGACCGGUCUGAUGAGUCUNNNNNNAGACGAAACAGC

Variants of: B1
methodSummary: normalized RNA/DNA level with ligand (relative to sTRSVctl = 100) (log10 (% of sTRSVctl)); ligand: hypoxanthine (xanthine aptamer); higher = less ribozyme self-cleavage, higher mRNA level
assaySetup: ligand concentration (+) RNA-Seq: 5 mM, HEK293T, reporter: mCherry (pCS4076), ligand present: yes
assayReadout: normalized RNA/DNA level with ligand (log10)
Kindly provide the number alone.

Per the records, this variant ( "CACUGA" ) has normalized RNA/DNA level with ligand (log10) equal to 1.95

Per the records, this variant ( "AACGUA" ) has normalized RNA/DNA level with ligand (log10) equal to 1.86

Per the records, this variant ( "GAACGU" ) has normalized RNA/DNA level with ligand (log10) equal to 1.9

Per the records, this variant ( "AUGGGA" ) has normalized RNA/DNA level with ligand (log10) equal to 1.89

Per the records, this variant ( "UCGGCC" ) has normalized RNA/DNA level with ligand (log10) equal to 2.04

Per the records, this variant ( "CUCAUG" ) has normalized RNA/DNA level with ligand (log10) equal to 1.96

Per the records, this variant ( "ACAAGG" ) has normalized RNA/DNA level with ligand (log10) equal to 1.83

Per the records, this variant ( "GAAAUU" ) has normalized RNA/DNA level with ligand (log10) equal to 1.95

Per the records, this variant ( "GGUCAG" ) has normalized RNA/DNA level with ligand (log10) equal to 1.94

Per the records, this variant ( "UAGCCU" ) has normalized RNA/DNA level with ligand (log10) equal to 2

Per the records, this variant ( "AUCAGA" ) has normalized RNA/DNA level with ligand (log10) equal to 1.93

Per the records, this variant ( "AGGAGU" ) has normalized RNA/DNA level with ligand (log10) equal to 1.8

Per the records, this variant ( "UUAAGG" ) has normalized RNA/DNA level with ligand (log10) equal to 1.93

Per the records, this variant ( "CUAUCU" ) has normalized RNA/DNA level with ligand (log10) equal to 1.9

Per the records, this variant ( "UUUAAU" ) has normalized RNA/DNA level with ligand (log10) equal to 1.92

Per the records, this variant ( "UCGGAA" ) has normalized RNA/DNA level with ligand (log10) equal to 1.84

Per the records, this variant ( "GGGGUA" ) has normalized RNA/DNA level with ligand (log10) equal to 1.94

Per the records, this variant ( "CCGGGG" ) has normalized RNA/DNA level with ligand (log10) equal to 1.83

Per the records, this variant ( "UGCGAC" ) has normalized RNA/DNA level with ligand (log10) equal to 1.96

Per the records, this variant ( "UCGUAC" ) has normalized RNA/DNA level with ligand (log10) equal to 1.94

Per the records, this variant ( "GAGCUA" ) has normalized RNA/DNA level with ligand (log10) equal to 1.93

Per the records, this variant ( "AGUUAA" ) has normalized RNA/DNA level with ligand (log10) equal to 1.92
